# Test system: Arabidopsis
# runDescription: Ribo-seq and RNA-seq global translatome profiling (translational efficiency TE, mORF/uORF ribo-shift) upon elf18 treatment
# Assay type: in vivo
# Design: key: Up: ribo-shift up (i.e., increased mORF/uORF ratio); Down: ribo-shift down (i.e., decreased mORF/uORF ratio)
# testParameters: shift of mORF/uORF ratio, elf18 vs Mock; per uORF

substance: AT1700.1_1: uORF of AT1G16700.1; peptide SEQ ID NO: 2 (DNA ATGTTCTTGTGA; listed as DNA, chemistry not fully specified)
assayedSystem: Arabidopsis
score (Ribo-shift): Down

substance: AT4G34460.1_1: uORF of AT4G34460.1; peptide SEQ ID NO: 30 (DNA ATGAACCTTCTTCTCTTCTAG; listed as DNA, chemistry not fully specified)
assayedSystem: Arabidopsis
score (Ribo-shift): Up

substance: ATG48300.1_1: uORF of AT1G48300.1; peptide SEQ ID NO: 6 (DNA ATGCGGCGAGGAGAAAGAGAAGGTTAA; listed as DNA, chemistry not fully specified)
assayedSystem: Arabidopsis
score (Ribo-shift): Up

substance: AT3G15030.1_2: uORF of AT3G15030.1; peptide SEQ ID NO: 16 (DNA ATGGGTTAG; listed as DNA, chemistry not fully specified)
assayedSystem: Arabidopsis
score (Ribo-shift): Down

substance: AT3G63340.1_1: uORF of AT3G63340.1; peptide SEQ ID NO: 20 (DNA ATGAAGCAATTGTTCCTTTCAAGCATGTTTACGAGCAAAAGAGTGAAAGGGTAG; listed as DNA, chemistry not fully specified)
assayedSystem: Arabidopsis
score (Ribo-shift): Down

substance: AT4G23740.1_2: uORF of AT4G23740.1; peptide SEQ ID NO: 25 (DNA ATGGCGGTTCTTCACATTATCTTCACTGCGTAA; listed as DNA, chemistry not fully specified)
assayedSystem: Arabidopsis
score (Ribo-shift): Down

substance: AT1G30330.1_1: uORF of AT1G30330.1; peptide SEQ ID NO: 4 (DNA ATGTTCTGCAACAGTTGA; listed as DNA, chemistry not fully specified)
assayedSystem: Arabidopsis
score (Ribo-shift): Up

substance: AT2G47210.1_1: uORF of AT2G47210.1; peptide SEQ ID NO: 13 (DNA ATGATAGCTACCCAGTAA; listed as DNA, chemistry not fully specified)
assayedSystem: Arabidopsis
score (Ribo-shift): Up

substance: AT4G23740.1_1: uORF of AT4G23740.1; peptide SEQ ID NO: 24 (DNA ATGCCAAAAAATAAGAACAAAATTATATCCGTTGCTTGA; listed as DNA, chemistry not fully specified)
assayedSystem: Arabidopsis
score (Ribo-shift): Up

substance: AT1G12580.1_1: uORF of AT1G12580.1; peptide SEQ ID NO: 1 (DNA ATGCAGCTTGCGATTTCATAG; listed as DNA, chemistry not fully specified)
assayedSystem: Arabidopsis
score (Ribo-shift): Up

----------
# Tested on: Arabidopsis
# runDescription: Ribo-seq and RNA-seq global translatome profiling (translational efficiency TE, mORF/uORF ribo-shift) upon elf18 treatment
# Format: in vivo
# Design: key: Up: ribo-shift up (i.e., increased mORF/uORF ratio); Down: ribo-shift down (i.e., decreased mORF/uORF ratio)
# testParameters: shift of mORF/uORF ratio, elf18 vs Mock; per uORF
parameterMeasured: score (Ribo-shift)

substance: AT4G38950.1_1: uORF of AT4G38950.1; peptide SEQ ID NO: 32 (DNA ATGTGCCCCAAAAGATAA; listed as DNA, chemistry not fully specified)
parameterMeasured: score (Ribo-shift)
result: Down
--
substance: AT4G18570.1_1: uORF of AT4G18570.1; peptide SEQ ID NO: 23 (DNA ATGCTTTTAATTTCCATGCAAATCTCTCCTTTCTTCTCAAGTCATTTTTGA; listed as DNA, chemistry not fully specified)
parameterMeasured: score (Ribo-shift)
result: Up
--
substance: AT1G19270.1_3: uORF of AT1G19270.1; peptide SEQ ID NO: 3 (DNA ATGAGCAGATAG; listed as DNA, chemistry not fully specified)
parameterMeasured: score (Ribo-shift)
result: Down
--
substance: AT1G72390.1_1: uORF of AT1G72390.1; peptide SEQ ID NO: 9 (DNA ATGTTTATGAATTCTTCATTGCTCTATTCTTAG; listed as DNA, chemistry not fully specified)
parameterMeasured: score (Ribo-shift)
result: Down
--
substance: AT4G26080.1_3: uORF of AT4G26080.1; peptide SEQ ID NO: 27 (DNA ATGTGTTTCTTCTTGTCTTCCTAG; listed as DNA, chemistry not fully specified)
parameterMeasured: score (Ribo-shift)
result: Down
